target: Y1R; test: cell-based or functional assay
Sequence (P25929 whole entry): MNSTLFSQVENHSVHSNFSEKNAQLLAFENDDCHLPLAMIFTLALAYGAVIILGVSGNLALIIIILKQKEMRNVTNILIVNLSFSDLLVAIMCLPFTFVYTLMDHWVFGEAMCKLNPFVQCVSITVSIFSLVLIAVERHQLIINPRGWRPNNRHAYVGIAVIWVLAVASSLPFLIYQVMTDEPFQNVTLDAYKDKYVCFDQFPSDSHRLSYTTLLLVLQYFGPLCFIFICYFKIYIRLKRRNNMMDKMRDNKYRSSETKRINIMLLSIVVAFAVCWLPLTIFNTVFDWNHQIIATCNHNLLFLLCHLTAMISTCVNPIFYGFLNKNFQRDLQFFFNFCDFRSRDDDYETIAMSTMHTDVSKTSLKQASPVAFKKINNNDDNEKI
*1 amine or outer side, *2 acyl side, *3 side chain or, on linkers, in order; H or OH if unused. [ ]: non-standard residue; d: D form. Pqa = N-piperazin-1-yl-4(3H)-quinazolinone-3-acetic acid, O=C(Cn1cnc2ccc(N3CCN([*:1])CC3)cc2c1=O)[*:2]; 4Pal = N[C@@H](Cc1ccncc1)C(=O)O; Nle = CCCC[C@H](N)C(=O)O
Listed below: Y1R EC50(nM) FLIPR values for each entry.
measurementType: Y1R EC50(nM) FLIPR

# binder, measurementType, result
data = [
    ("IARHYLNLVTRQRY (Pqa moiety between the two parts; C-terminal amide) [H-Ile-Ala-Pqa-Arg-His-Tyr-Leu-Asn-Leu-Val-Thr-Arg-Gln-Arg-Tyr-NH2]", "Y1R EC50(nM) FLIPR", "1000 nM"),
    ("Ac-I[Nle][Pqa]FHYLNLVTRQRY-NH2 (SMILES CCCC[C@H](NC(=O)[C@@H](NC(C)=O)[C@@H](C)CC)C(=O)N1CCN(c2ccc3ncn(CC(=O)N[C@@H](Cc4ccccc4)C(=O)N[C@@H](Cc4c[nH]cn4)C(=O)N[C@@H](Cc4ccc(O)cc4)C(=O)N[C@@H](CC(C)C)C(=O)N[C@@H](CC(N)=O)C(=O)N[C@@H](CC(C)C)C(=O)N[C@H](C(=O)N[C@H](C(=O)N[C@@H](CCCNC(=N)N)C(=O)N[C@@H](CCC(N)=O)C(=O)N[C@@H](CCCNC(=N)N)C(=O)N[C@@H](Cc4ccc(O)cc4)C(N)=O)[C@@H](C)O)C(C)C)c(=O)c3c2)CC1) [Ac-Ile-Nle-Pqa-Phe-His-Tyr-Leu-Asn-Leu-Val-Thr-Arg-Gln-Arg-Tyr-NH2]", "Y1R EC50(nM) FLIPR", "> 5000 nM"),
    ("Ac-I[Nle][Pqa]R[4Pal]YLNLVTRQRY-NH2 (SMILES CCCC[C@H](NC(=O)[C@@H](NC(C)=O)[C@@H](C)CC)C(=O)N1CCN(c2ccc3ncn(CC(=O)N[C@@H](CCCNC(=N)N)C(=O)N[C@@H](Cc4ccncc4)C(=O)N[C@@H](Cc4ccc(O)cc4)C(=O)N[C@@H](CC(C)C)C(=O)N[C@@H](CC(N)=O)C(=O)N[C@@H](CC(C)C)C(=O)N[C@H](C(=O)N[C@H](C(=O)N[C@@H](CCCNC(=N)N)C(=O)N[C@@H](CCC(N)=O)C(=O)N[C@@H](CCCNC(=N)N)C(=O)N[C@@H](Cc4ccc(O)cc4)C(N)=O)[C@@H](C)O)C(C)C)c(=O)c3c2)CC1) [Ac-Ile-Nle-Pqa-Arg-(4-Pal)-Tyr-Leu-Asn-Leu-Val-Thr-Arg-Gln-Arg-Tyr-NH2]", "Y1R EC50(nM) FLIPR", "> 5000 nM"),
    ("H-IK[Pqa]RHYLALVTRQRY-NH2 (SMILES CC[C@H](C)[C@H](N)C(=O)N[C@@H](CCCCN)C(=O)N1CCN(c2ccc3ncn(CC(=O)N[C@@H](CCCNC(=N)N)C(=O)N[C@@H](Cc4c[nH]cn4)C(=O)N[C@@H](Cc4ccc(O)cc4)C(=O)N[C@@H](CC(C)C)C(=O)N[C@@H](C)C(=O)N[C@@H](CC(C)C)C(=O)N[C@H](C(=O)N[C@H](C(=O)N[C@@H](CCCNC(=N)N)C(=O)N[C@@H](CCC(N)=O)C(=O)N[C@@H](CCCNC(=N)N)C(=O)N[C@@H](Cc4ccc(O)cc4)C(N)=O)[C@@H](C)O)C(C)C)c(=O)c3c2)CC1) [H-Ile-Lys-Pqa-Arg-His-Tyr-Leu-Ala-Leu-Val-Thr-Arg-Gln-Arg-Tyr-NH2]", "Y1R EC50(nM) FLIPR", "> 5000 nM"),
]
